# System: MST1R;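 also: KINOMEscan kinase panel screen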
# MEASUREMENT_SETUP: concentration: 1 μM, replicates: in singlicate; n = 1
# %Inh per record follows

COMPOUND	%Inh [%]
COc1ccc(NC(=O)c2ccc(-c3cc(-c4nnc(C)o4)ccc3C)cc2)cc1	34
O=C(Nc1ccccc1F)NC1CCN(c2ccnc(Nc3ccc(F)cc3)n2)C1 (stereo not drawn)	38
Cn1ccc2ncnc(Nc3ccc(Oc4cccc(Cl)c4)c(Cl)c3)c21	42
CC(C)N1CCC(n2cnc(-c3ccc(F)cc3)c2-c2ccnc(N)n2)CC1	0
Nc1nc(-c2ccccn2)c(-c2ccnc3ccccc23)s1	50
CNc1nccc(-c2c(-c3ccc(F)cc3)ncn2CCCN2CCOCC2)n1	0
FC(F)(F)c1ccc(-c2cc(-c3c[nH]nc3-c3ccccn3)ccn2)cc1	33
Cl.Cl.c1ccc(-c2cc3ccncc3cc2OC2CCNCC2)cc1	53
CSc1nn2c(=O)cc(N3CCOCC3)nc2n1Cc1cccc(Cl)c1Cl	59
